Data origin, for the record: the RNAGym collection of RNA variant scans (doi:10.1126/science.aae0568)

B1: tRNA (parent)
chain: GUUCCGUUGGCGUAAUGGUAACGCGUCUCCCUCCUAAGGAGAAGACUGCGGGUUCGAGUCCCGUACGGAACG

Variants of: B1
Assay: yeast fitness relative to wild type (ratio to wild type); higher = fitter; tRNA-Arg(CCU), competitive growth, 37 C, YPD
Fewer inactive variants are shown than the library holds.
Each entry gets False if its yeast fitness stays under 0.8, and True if its yeast fitness is 0.8 or above.

C5A C30A G44A    False

QUERY: Tell me whether yeast fitness is at least 0.8 here: A15G C49A G56A
RESULT: False

QUERY: Is yeast fitness at least 0.8? Consider U2G G10C G56C A69U
RESULT: False

QUERY: Check this variant for yeast fitness at or above 0.8: G48C G51C
RESULT: False

QUERY: Evaluate U7A A42U A45G A57C A69U : yeast fitness at minimum 0.8?
RESULT: False

QUERY: In plain terms: is recorded yeast fitness at least 0.8 for C34G C49A ?
RESULT: False

QUERY: // inclusive: yeast fitness at least 0.8? input: U2A C22A A40C C46G U59A C60U C61G
RESULT: False
